- Protocol: Biodistribution in ICR mice after an iv injection
- Assay type: in vivo
- Measurement conditions: Heart, 30 min after iv injection
Measured attribute: % dose/g (% dose/g)
One number for each entry, in % dose/g.

# input compound: CNc1ccc(-c2ccc3nc(OCCOCCOCC[18F])ccc3c2)cc1 [[^18F]34a] ; wanted: its % dose/g
2.86

Item CNc1ccc2cc(-c3ccc(OCCOCCOCC[18F])cc3)ccc2c1 [[^18F]19a] has what recorded % dose/g?
1.74

Fill blank: measured % dose/g of the compound CN(C)c1ccc(-c2ccc3nc(OCCOCCOCC[18F])ccc3c2)cc1 [[^18F]32a] is ____.
1.99

Now consider a different compound.
Data request, read-out % dose/g, for CNc1ccc(-c2ccc3cc(OCCOCCOCCF)ccc3c2)cc1
2.04
